system: Amaranthus retoflexus (AMARE); assay: Pre-emergence herbicide glasshouse test; assay type: in vivo; settings: pre-emergence (sprayed after one day cultivation), 250 g/ha, evaluated after 13 days
measured-attribute: percentage damage caused to the plant, five-point scale, AMARE

{"molecule": "CC(C)c1nc(CCCC(F)(F)F)c2c(Oc3ncc(Cl)cn3)cccc2n1 [Compound 1.050]", "measured-result": "5 (5=81-100%)"}
{"molecule": "C=CCCc1nc(C(F)(F)F)nc2cccc(Oc3ncc(Cl)cn3)c12 [Compound 1.028]", "measured-result": "4 (4=61-80%)"}
{"molecule": "COc1nc(CCCC(F)(F)F)c2c(Oc3ncc(Cl)cn3)cccc2n1 [Compound 1.014]", "measured-result": "5 (5=81-100%)"}
{"molecule": "Cc1nc(CCCC(F)(F)F)c2c(Oc3ncc(Cl)cn3)ccc(Cl)c2n1 [Compound 1.019]", "measured-result": "2 (2=21-40%)"}

----------
System: Echinochloa crus-galli (ECHCG)
Test: Post-emergence herbicide glasshouse test
Format: in vivo
Details: post-emergence (sprayed after 8 days cultivation), 250 g/ha, evaluated after 13 days
Experimental: Seeds of a variety of test species are sown in standard soil in pots Amaranthus retoflexus (AMARE), Echinochloa crus-galli (ECHCG), Setaria faberi (SETFA)). […] After 13 days for pre and post-emergence, the test is evaluated for the percentage damage caused to the plant. […]
# maps each entry to its percentage damage caused to the plant, five-point scale, ECHCG
measured-attribute: percentage damage caused to the plant, five-point scale, ECHCG

{"smiles-input": "FC(F)(F)CCCc1cc(C(F)(F)F)nc2cccc(Oc3ncc(Cl)cn3)c12", "tested-on": "Echinochloa crus-galli (ECHCG)", "measured-result": "4 (4=61-80%)"}
{"smiles-input": "Cc1nc2cccc(Oc3ncc(Cl)cn3)c2c(CCCC(F)(F)F)c1C#N", "tested-on": "Echinochloa crus-galli (ECHCG)", "measured-result": "1 (1=0-20%)"}
{"smiles-input": "Cc1nc(CCCC(F)(F)F)c2c(Oc3ncc(Cl)cn3)cccc2n1", "tested-on": "Echinochloa crus-galli (ECHCG)", "measured-result": "4 (4=61-80%)"}
{"smiles-input": "Fc1cnc(Oc2cccc3nc(C(F)(F)F)nc(CCCC(F)(F)F)c23)nc1", "tested-on": "Echinochloa crus-galli (ECHCG)", "measured-result": "5 (5=81-100%)"}
{"smiles-input": "FC(F)Oc1cnc(Oc2cccc3nc(C(F)(F)F)nc(CCCC(F)(F)F)c23)nc1", "tested-on": "Echinochloa crus-galli (ECHCG)", "measured-result": "1 (1=0-20%)"}
{"smiles-input": "FC(F)(F)CCCCc1nc(C(F)(F)F)nc2cccc(Oc3ncc(Cl)cn3)c12", "tested-on": "Echinochloa crus-galli (ECHCG)", "measured-result": "4 (4=61-80%)"}
{"smiles-input": "CCCc1nc(CCCC(F)(F)F)c2c(Oc3ncc(Cl)cn3)cccc2n1", "tested-on": "Echinochloa crus-galli (ECHCG)", "measured-result": "3 (3=41-60%)"}
{"smiles-input": "COc1nc(CCCC(F)(F)F)c2c(Oc3ncc(Cl)cn3)cccc2n1", "tested-on": "Echinochloa crus-galli (ECHCG)", "measured-result": "5 (5=81-100%)"}
{"smiles-input": "COc1cnc(Oc2cccc3nc(C(F)(F)F)nc(CCCC(F)(F)F)c23)nc1", "tested-on": "Echinochloa crus-galli (ECHCG)", "measured-result": "3 (3=41-60%)"}
{"smiles-input": "FC(F)(F)CCOc1nccc2cccc(Oc3ncc(Cl)cn3)c12", "tested-on": "Echinochloa crus-galli (ECHCG)", "measured-result": "1 (1=0-20%)"}
{"smiles-input": "CC(C)c1nc(CCCC(F)(F)F)c2c(Oc3ncc(Cl)cn3)cccc2n1", "tested-on": "Echinochloa crus-galli (ECHCG)", "measured-result": "2 (2=21-40%)"}
{"smiles-input": "FC(F)(F)CCCc1ncnc2cccc(Oc3ncc(Cl)cn3)c12", "tested-on": "Echinochloa crus-galli (ECHCG)", "measured-result": "3 (3=41-60%)"}

----------
test system: Echinochloa crus-galli (ECHCG); experiment: Post-emergence herbicide glasshouse test; type: in vivo; details: post-emergence (sprayed after 8 days cultivation), 250 g/ha, evaluated after 13 days
# maps each entry to its percentage damage caused to the plant, five-point scale, ECHCG
measured-attribute: percentage damage caused to the plant, five-point scale, ECHCG

{"smiles-input": "FC(F)(F)CCOc1ncnc2cccc(Oc3ncc(Cl)cn3)c12", "measured-result": "1 (1=0-20%)"}
{"smiles-input": "CCCCc1nc(C(F)(F)F)nc2cccc(Oc3ncc(Cl)cn3)c12", "measured-result": "5 (5=81-100%)"}
{"smiles-input": "FC(F)(F)CCCc1nc(C2CCCC2)nc2cccc(Oc3ncc(Cl)cn3)c12", "measured-result": "3 (3=41-60%)"}
{"smiles-input": "FC(F)(F)CCCc1nc(C2CC2)nc2cccc(Oc3ncc(Cl)cn3)c12", "measured-result": "3 (3=41-60%)"}
{"smiles-input": "FC(F)(F)CCCc1nccc2cccc(Oc3ncc(Cl)cn3)c12", "measured-result": "4 (4=61-80%)"}
{"smiles-input": "C=CCCc1nc(C(F)(F)F)nc2cccc(Oc3ncc(Cl)cn3)c12", "measured-result": "4 (4=61-80%)"}
{"smiles-input": "Cc1nc(OCCC(F)(F)F)c2c(Oc3ncc(Cl)cn3)cccc2n1", "measured-result": "1 (1=0-20%)"}
{"smiles-input": "Cc1cnc(Oc2cccc3nc(C(F)(F)F)nc(CCCC(F)(F)F)c23)nc1", "measured-result": "5 (5=81-100%)"}
{"smiles-input": "FC(F)(F)CCc1nc(C(F)(F)F)nc2cccc(Oc3ncc(Cl)cn3)c12", "measured-result": "4 (4=61-80%)"}

----------
test system: Amaranthus retoflexus (AMARE); experiment: Pre-emergence herbicide glasshouse test; format: in vivo; conditions: pre-emergence (sprayed after one day cultivation), 250 g/ha, evaluated after 13 days
# maps each entry to its percentage damage caused to the plant, five-point scale, AMARE
measured-attribute: percentage damage caused to the plant, five-point scale, AMARE

{"compound": "CCCCCCc1nc(CCCC(F)(F)F)c2c(Oc3ncc(Cl)cn3)cccc2n1 [Compound 1.032]", "measured-result": "4 (4=61-80%)"}
{"compound": "FC(F)(F)CCCc1cc(C(F)(F)F)nc2cccc(Oc3ncc(Cl)cn3)c12 [Compound 1.015]", "measured-result": "5 (5=81-100%)"}
{"compound": "CCCc1nc(CCCC(F)(F)F)c2c(Oc3ncc(Cl)cn3)cccc2n1 [Compound 1.033]", "measured-result": "2 (2=21-40%)"}
{"compound": "Cc1cnc(Oc2cccc3nc(C(F)(F)F)nc(CCCC(F)(F)F)c23)nc1 [Compound 1.020]", "measured-result": "5 (5=81-100%)"}
{"compound": "FC(F)(F)CCCc1nc(C2CC2)nc2cccc(Oc3ncc(Cl)cn3)c12 [Compound 1.036]", "measured-result": "2 (2=21-40%)"}
{"compound": "FC(F)(F)CCOc1nc(C(F)(F)F)nc2cccc(Oc3ncc(Cl)cn3)c12 [Compound 1.006]", "measured-result": "5 (5=81-100%)"}
{"compound": "FC(F)(F)CCOc1ncnc2cccc(Oc3ncc(Cl)cn3)c12 [Compound 1.008]", "measured-result": "5 (5=81-100%)"}
{"compound": "FC(F)(F)CCOc1nccc2cccc(Oc3ncc(Cl)cn3)c12 [Compound 1.009]", "measured-result": "1 (1=0-20%)"}
{"compound": "CCCCc1nc(C(F)(F)F)nc2cccc(Oc3ncc(Cl)cn3)c12 [Compound 1.005]", "measured-result": "5 (5=81-100%)"}
{"compound": "FC(F)(F)CCCCc1nc(C(F)(F)F)nc2cccc(Oc3ncc(Cl)cn3)c12 [Compound 1.021]", "measured-result": "5 (5=81-100%)"}
{"compound": "FC(F)(F)CCCc1nccc2cccc(Oc3ncc(Cl)cn3)c12 [Compound 1.012]", "measured-result": "4 (4=61-80%)"}
{"compound": "FC(F)(F)CCCc1nc(C(F)(F)F)nc2cccc(Oc3ncc(Br)cn3)c12 [Compound 1.025]", "measured-result": "4 (4=61-80%)"}
{"compound": "FC(F)(F)CCCc1nc(C2CCCC2)nc2cccc(Oc3ncc(Cl)cn3)c12 [Compound 1.031]", "measured-result": "1 (1=0-20%)"}
{"compound": "FC(F)Oc1cnc(Oc2cccc3nc(C(F)(F)F)nc(CCCC(F)(F)F)c23)nc1 [Compound 1.027]", "measured-result": "3 (3=41-60%)"}
{"compound": "Fc1cnc(Oc2cccc3nc(C(F)(F)F)nc(CCCC(F)(F)F)c23)nc1 [Compound 1.011]", "measured-result": "5 (5=81-100%)"}
{"compound": "FC(F)(F)CCCc1ncnc2cccc(Oc3ncc(Cl)cn3)c12 [Compound 1.003]", "measured-result": "5 (5=81-100%)"}
{"compound": "FC(F)(F)CCc1nc(C(F)(F)F)nc2cccc(Oc3ncc(Cl)cn3)c12 [Compound 1.022]", "measured-result": "5 (5=81-100%)"}
{"compound": "FC(F)(F)CCCc1nc(Br)nc2cccc(Oc3ncc(Cl)cn3)c12 [Compound 1.029]", "measured-result": "1 (1=0-20%)"}
{"compound": "Cc1nc(CCCC(F)(F)F)c2c(Oc3ncc(Cl)cn3)cccc2n1 [Compound 1.013]", "measured-result": "3 (3=41-60%)"}
{"compound": "Cc1nc(OCCC(F)(F)F)c2c(Oc3ncc(Cl)cn3)cccc2n1 [Compound 1.007]", "measured-result": "2 (2=21-40%)"}
{"compound": "Cc1nc2cccc(Oc3ncc(Cl)cn3)c2c(CCCC(F)(F)F)c1C#N [Compound 1.043]", "measured-result": 0}
{"compound": "Clc1cnc(Oc2cccc3cccc(Oc4ncc(Cl)cn4)c23)nc1 [Compound 1.001]", "measured-result": "3 (3=41-60%)"}
{"compound": "FC(F)(F)CCCc1cccc2cccc(Oc3ncc(Cl)cn3)c12 [Compound 1.002]", "measured-result": "1 (1=0-20%)"}
{"compound": "COc1cnc(Oc2cccc3nc(C(F)(F)F)nc(CCCC(F)(F)F)c23)nc1 [Compound 1.026]", "measured-result": "2 (2=21-40%)"}
{"compound": "Cc1ccc(Oc2ncc(Cl)cn2)c2c(CCCC(F)(F)F)nc(C(F)(F)F)nc12 [Compound 1.046]", "measured-result": "2 (2=21-40%)"}

Values from patent US20240032541A1
